assay: Emulsion dilution: crystallisation of tebuconazole in emulsions, ocular inspection; format: physicochemical; design: key: +: no crystals visible; −: crystals visible; settings: 5° C., 96 h, formulation:tap water 1:500, 250 g/l tebuconazole
observed.property: Crystallisation of tebuconazole in emulsion

CCCCCCCCN(C)C(=O)CC [N-methyl-N-octyl propanamide]    −
CCCCCC(CCC)CN(C)C=O (stereo not shown) [N-methyl-N-(2-propylheptyl) formamide, N-methyl-N-(2-propylheptyl)-formamide]    +
CCCCCCCCCC(=O)N(C)C [N,N-dimethyl decanamide]    −
CCCCCCCCCCN(C)C=O [N-methyl-N-(n-decyl) formamide]    +

----------
assay: Solubility of active ingredients in the amide solvents (solvent added until dissolved, stable 24 h); conditions: solvent N-methyl-N-(2-propylheptyl) formamide, 23° C.
observed.property: Solubility in N-Methyl-N-(2-propylheptyl) formamide (g Al/100 g solvent)
The reply should contain only the number, in g Al/100 g solvent.

O=C(O)COc1ccc(Cl)cc1Cl [2,4-D acid]    41

**Query** So what does the record say about Solubility in N-Methyl-N-(2-propylheptyl) formamide for CC(C)(C)C(O)(CCc1ccc(Cl)cc1)Cn1cncn1 (stereo not shown) [Tebuconazole] ?
**Result** 48

----------
assay: Emulsion dilution: crystallisation of tebuconazole in emulsions, ocular inspection; type: physicochemical; parameters: key: +: no crystals visible; −: crystals visible; conditions: 5° C., 48 h, formulation:tap water 1:150, 250 g/l tebuconazole
observed.property: Crystallisation of tebuconazole in emulsion

CCCCCCCCN(C)C(=O)CC [N-methyl-N-octyl propanamide]    −
CCCCCCCCCC(=O)N(C)C [N,N-dimethyl decanamide]    −
CCCCCC(CCC)CN(C)C=O (stereo not shown) [N-methyl-N-(2-propylheptyl) formamide, N-methyl-N-(2-propylheptyl)-formamide]    +
CCCCCCCCCCN(C)C=O [N-methyl-N-(n-decyl) formamide]    +

----------
assay: Emulsion dilution: crystallisation of tebuconazole in emulsions, ocular inspection; format: physicochemical; parameters: key: +: no crystals visible; −: crystals visible; conditions: 5° C., 24 h, formulation:tap water 1:500, 250 g/l tebuconazole
observed.property: Crystallisation of tebuconazole in emulsion

CCCCCCCCCCN(C)C=O [N-methyl-N-(n-decyl) formamide]    +
CCCCCC(CCC)CN(C)C=O (stereo not shown) [N-methyl-N-(2-propylheptyl) formamide, N-methyl-N-(2-propylheptyl)-formamide]    +
CCCCCCCCCC(=O)N(C)C [N,N-dimethyl decanamide]    −
CCCCCCCCN(C)C(=O)CC [N-methyl-N-octyl propanamide]    −

----------
assay: Emulsion dilution: crystallisation of tebuconazole in emulsions, ocular inspection; assay type: physicochemical; design: key: +: no crystals visible; −: crystals visible; conditions: 5° C., 36 h, formulation:tap water 1:150, 250 g/l tebuconazole
observed.property: Crystallisation of tebuconazole in emulsion

CCCCCCCCCCN(C)C=O [N-methyl-N-(n-decyl) formamide]    +
CCCCCCCCCC(=O)N(C)C [N,N-dimethyl decanamide]    −
CCCCCC(CCC)CN(C)C=O (stereo not shown) [N-methyl-N-(2-propylheptyl) formamide, N-methyl-N-(2-propylheptyl)-formamide]    +
CCCCCCCCN(C)C(=O)CC [N-methyl-N-octyl propanamide]    +

----------
test: Emulsion dilution: crystallisation of tebuconazole in emulsions, ocular inspection; assay type: physicochemical; set-up: key: +: no crystals visible; −: crystals visible; details: 5° C., 36 h, formulation:tap water 1:200, 250 g/l tebuconazole
observed.property: Crystallisation of tebuconazole in emulsion

CCCCCCCCCC(=O)N(C)C [N,N-dimethyl decanamide]    −
CCCCCCCCN(C)C(=O)CC [N-methyl-N-octyl propanamide]    −
CCCCCCCCCCN(C)C=O [N-methyl-N-(n-decyl) formamide]    +
CCCCCC(CCC)CN(C)C=O (stereo not shown) [N-methyl-N-(2-propylheptyl) formamide, N-methyl-N-(2-propylheptyl)-formamide]    +

----------
experiment: Emulsion dilution: crystallisation of tebuconazole in emulsions, ocular inspection; type: physicochemical; design: key: +: no crystals visible; −: crystals visible; settings: 5° C., 6 h, formulation:tap water 1:500, 250 g/l tebuconazole
observed.property: Crystallisation of tebuconazole in emulsion

CCCCCCCCN(C)C(=O)CC [N-methyl-N-octyl propanamide]    −
CCCCCC(CCC)CN(C)C=O (stereo not shown) [N-methyl-N-(2-propylheptyl) formamide, N-methyl-N-(2-propylheptyl)-formamide]    +
CCCCCCCCCC(=O)N(C)C [N,N-dimethyl decanamide]    −
CCCCCCCCCCN(C)C=O [N-methyl-N-(n-decyl) formamide]    +

----------
test: Emulsion dilution: crystallisation of tebuconazole in emulsions, ocular inspection; type: physicochemical; design: key: +: no crystals visible; −: crystals visible; conditions: 5° C., 36 h, formulation:tap water 1:500, 250 g/l tebuconazole
observed.property: Crystallisation of tebuconazole in emulsion

CCCCCCCCN(C)C(=O)CC [N-methyl-N-octyl propanamide]    −
CCCCCCCCCC(=O)N(C)C [N,N-dimethyl decanamide]    −
CCCCCCCCCCN(C)C=O [N-methyl-N-(n-decyl) formamide]    +
CCCCCC(CCC)CN(C)C=O (stereo not shown) [N-methyl-N-(2-propylheptyl) formamide, N-methyl-N-(2-propylheptyl)-formamide]    +

----------
experiment: Emulsion dilution: crystallisation of tebuconazole in emulsions, ocular inspection; assay type: physicochemical; set-up: key: +: no crystals visible; −: crystals visible; details: 5° C., 24 h, formulation:tap water 1:200, 250 g/l tebuconazole
observed.property: Crystallisation of tebuconazole in emulsion

CCCCCCCCCC(=O)N(C)C [N,N-dimethyl decanamide]    −
CCCCCCCCN(C)C(=O)CC [N-methyl-N-octyl propanamide]    −
CCCCCC(CCC)CN(C)C=O (stereo not shown) [N-methyl-N-(2-propylheptyl) formamide, N-methyl-N-(2-propylheptyl)-formamide]    +
CCCCCCCCCCN(C)C=O [N-methyl-N-(n-decyl) formamide]    +

----------
assay: Emulsion dilution: crystallisation of tebuconazole in emulsions, ocular inspection; assay type: physicochemical; design: key: +: no crystals visible; −: crystals visible; settings: 5° C., 48 h, formulation:tap water 1:500, 250 g/l tebuconazole
observed.property: Crystallisation of tebuconazole in emulsion

CCCCCCCCCC(=O)N(C)C [N,N-dimethyl decanamide]    −
CCCCCC(CCC)CN(C)C=O (stereo not shown) [N-methyl-N-(2-propylheptyl) formamide, N-methyl-N-(2-propylheptyl)-formamide]    +
CCCCCCCCCCN(C)C=O [N-methyl-N-(n-decyl) formamide]    +
CCCCCCCCN(C)C(=O)CC [N-methyl-N-octyl propanamide]    −

----------
assay: Emulsion dilution: crystallisation of tebuconazole in emulsions, ocular inspection; format: physicochemical; set-up: key: +: no crystals visible; −: crystals visible; details: 5° C., 72 h, formulation:tap water 1:150, 250 g/l tebuconazole
observed.property: Crystallisation of tebuconazole in emulsion

CCCCCCCCCC(=O)N(C)C [N,N-dimethyl decanamide]    −
CCCCCC(CCC)CN(C)C=O (stereo not shown) [N-methyl-N-(2-propylheptyl) formamide, N-methyl-N-(2-propylheptyl)-formamide]    +
CCCCCCCCCCN(C)C=O [N-methyl-N-(n-decyl) formamide]    +
CCCCCCCCN(C)C(=O)CC [N-methyl-N-octyl propanamide]    −

----------
test: Emulsion dilution: crystallisation of tebuconazole in emulsions, ocular inspection; assay type: physicochemical; parameters: key: +: no crystals visible; −: crystals visible; conditions: 5° C., 12 h, formulation:tap water 1:200, 250 g/l tebuconazole
observed.property: Crystallisation of tebuconazole in emulsion

CCCCCCCCCC(=O)N(C)C [N,N-dimethyl decanamide]    −
CCCCCC(CCC)CN(C)C=O (stereo not shown) [N-methyl-N-(2-propylheptyl) formamide, N-methyl-N-(2-propylheptyl)-formamide]    +
CCCCCCCCN(C)C(=O)CC [N-methyl-N-octyl propanamide]    −
CCCCCCCCCCN(C)C=O [N-methyl-N-(n-decyl) formamide]    +

----------
assay: Emulsion dilution: crystallisation of tebuconazole in emulsions, ocular inspection; assay type: physicochemical; parameters: key: +: no crystals visible; −: crystals visible; settings: 5° C., 24 h, formulation:tap water 1:150, 250 g/l tebuconazole
observed.property: Crystallisation of tebuconazole in emulsion

CCCCCCCCCCN(C)C=O [N-methyl-N-(n-decyl) formamide]    +
CCCCCC(CCC)CN(C)C=O (stereo not shown) [N-methyl-N-(2-propylheptyl) formamide, N-methyl-N-(2-propylheptyl)-formamide]    +
CCCCCCCCCC(=O)N(C)C [N,N-dimethyl decanamide]    −
CCCCCCCCN(C)C(=O)CC [N-methyl-N-octyl propanamide]    +

----------
test: Emulsion dilution: crystallisation of tebuconazole in emulsions, ocular inspection; assay type: physicochemical; parameters: key: +: no crystals visible; −: crystals visible; conditions: 5° C., 72 h, formulation:tap water 1:500, 250 g/l tebuconazole
observed.property: Crystallisation of tebuconazole in emulsion

CCCCCCCCCCN(C)C=O [N-methyl-N-(n-decyl) formamide]    +
CCCCCC(CCC)CN(C)C=O (stereo not shown) [N-methyl-N-(2-propylheptyl) formamide, N-methyl-N-(2-propylheptyl)-formamide]    +
CCCCCCCCN(C)C(=O)CC [N-methyl-N-octyl propanamide]    −
CCCCCCCCCC(=O)N(C)C [N,N-dimethyl decanamide]    −
